Target chain: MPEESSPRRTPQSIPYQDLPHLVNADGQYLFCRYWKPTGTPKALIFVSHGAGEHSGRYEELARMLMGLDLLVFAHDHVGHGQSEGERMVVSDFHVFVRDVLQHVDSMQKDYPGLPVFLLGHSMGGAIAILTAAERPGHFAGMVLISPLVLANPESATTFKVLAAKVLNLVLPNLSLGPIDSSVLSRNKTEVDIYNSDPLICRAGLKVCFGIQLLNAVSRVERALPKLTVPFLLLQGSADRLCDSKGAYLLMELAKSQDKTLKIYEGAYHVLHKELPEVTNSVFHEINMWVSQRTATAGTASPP
pIC50: −log10 of the molar value.
Please note: met applies when pIC50 is 8 or greater, and not met applies otherwise.

// below: answered compounds
| COMPOUND | LABEL CLASS |
| --- | --- |
| O=C(N1CC2(CC(Cc3ccc(S(=O)(=O)C(F)(F)F)cn3)C2)C1)N1CC2(CC(c3nc(C4(F)CC4)n[nH]3)C2)C1 | met |
| O=C(N1CC2(CC(Cc3cc(C(F)(F)F)ccn3)C2)C1)N1CC2(CC(c3ncn[nH]3)C2)C1 | not met |

Exam item: Check if pIC50 >= 8 (inclusive). Item: CS(=N)(=O)c1cc(CC2CC3(C2)CN(C(=O)N2CC4(CC(c5nc(C6CC6)n[nH]5)C4)C2)C3)cc(C(F)(F)F)c1 (stereo not drawn)
Marked response: met

Exam item: # check: pIC50 of CS(=N)(=O)c1cccc(CC2CC3(C2)CN(C(=O)N2CC4(CC(c5nc(C6CC(F)(F)C6)n[nH]5)C4)C2)C3)c1 (stereo not drawn) is greater than or equal to 8
Marked response: not met

Exam item: Does the reported pIC50 for O=C(N1CC2(CC(Cc3cn[nH]c3C(F)(F)F)C2)C1)N1CC2(CC(c3nc(C4CC4)n[nH]3)C2)C1 fall at or above the 8 mark?
Marked response: met

Exam item: Determine whether measured pIC50 meets or exceeds 8 for O=C(N1CC(c2ccc(C3(C(F)(F)F)CC3)cc2)C1)N1CC2(CC(c3nnc(C4CC4)[nH]3)C2)C1
Marked response: met

Exam item: Could you please find out whether O=C(N1CC(C23CC(c4cc(C5CC5)n[nH]4)(C2)C3)C1)N1CC2(CC(c3nc(C4CC4)n[nH]3)C2)C1 has pIC50 that meets 8 or exceeds it?
Marked response: met

Exam item: Is it the case that N=[S@](=O)(c1ccc(CC2CC3(C2)CN(C(=O)N2CC4(CC(c5nnc(C6(N)CC6)[nH]5)C4)C2)C3)cc1)C(F)(F)F (stereo in doubt) has pIC50 reaching or exceeding 8?
Marked response: met

Exam item: Is it the case that O=C(N1CC2(CC(c3nc(C4CC4)n[nH]3)C2)C1)N1CC2(CN(Cc3ccc[nH]c3=O)C2)C1 has pIC50 reaching or exceeding 8?
Marked response: not met

Exam item: Check if pIC50 >= 8 (inclusive). Item: N#Cc1ccc(OC2CC3(C2)CN(C(=O)N2CC4(CC(c5nc(C6CC6)n[nH]5)C4)C2)C3)cc1C(F)(F)F
Marked response: met

Exam item: Check this compound for pIC50 at or above 8: NC(=O)[C@@H]1CC(F)(F)CCN1c1ccc(C2CN(C(=O)N3CC4(CC(c5nnc(C6CC6)[nH]5)C4)C3)C2)cc1
Marked response: met

// provenance: patent US20250099448A1
